Assay: NCI Yeast Anticancer Drug Screen. Data for the rad50 strain (AID 155);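 further: 0% = growth of vehicle-only cultures of the same strain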
Experimental Context: S. cerevisiae rad50 strain growth inhibition; at 50.0 µM (retest, dose inferred, filed as 5.0)
The panel holds about 79,000 compounds, 15% with a hit somewhere; the sample as a whole holds those more often. Active and inactive are the calls of the source. No stated cut-off is given here; in the data, active means growth inhibition above about 70%; inactive means the rest.
Just give me one of these, please: 1.0 for active, 0.0 for inactive

Here are 3 compounds together with their reported answers.
NC(Cc1ccnnc1)C(=O)O (stereo not drawn): 0.0
C[N+]1(C)CCN(CCCN2c3ccccc3Sc3ccccc32)CC1: 0.0
CC(=O)N(c1ccccc1)C(C)C: 0.0

So what was the verdict on CCc1cccc(C)c1NC(=O)C(=O)C(C#N)c1ccc(C)cc1 (stereo not drawn) in this test? 0.0

Please state the recorded outcome for this compound: "CC1=NN(c2nc(N)nc(NS(=O)(=O)c3cc(C)c(Cl)cc3S)n2)C(C)(C)C1" 0.0

What did the test return for "O=C(Nc1cc(Cl)cc(Cl)c1)C(F)(F)F" ? 1.0

---

Assay: NCI Yeast Anticancer Drug Screen. Data for the mec2-1 strain (AID 157)
Experimental Context: S. cerevisiae mec2-1 strain, at 50.0 µM (retest, dose inferred, filed as 5.0)
The panel holds about 79,000 compounds, 15% with a hit somewhere; the sample as a whole holds those more often. Activity calls are given as the source filed them. No stated cut-off is given here; in the data, active means growth inhibition above about 70%; inactive means the rest.
Respond only with the outcome that fits, drawn from active, inactive

CC(C)C[NH-].CC(C)C[NH-].[Cl][Pt+2]([Cl])([Cl])[Cl]: active
O=C(O)Cc1ccc2c3c(cccc13)CC2: active
O=C(O)C(O)Cc1ccc(O)cc1 (stereo not given): inactive
Cc1cc(SCC(=O)c2ccc(Br)cc2)cc(C)[o+]1: active
CCC(c1ccccc1)N1C(=O)c2ccccc2S1(=O)=O (stereo not given): inactive

Recorded test outcome, item "COc1ccc2nc3cc(Cl)ccc3c(NCCC[N+](C)(C)CCCCCCCCCCCCCCCC[N+](C)(C)CCCNc3c4ccc(Cl)cc4nc4ccc(OC)cc34)c2c1" active

Write down the call the test reported for this compound. Item: "COc1ccc(N2C(=O)C(=O)N(c3ccccc3[N+](=O)[O-])C2=S)cc1" active

Recorded test outcome, item CCCCCCC(=O)OCCN(CCOC(=O)CCCCCC)C(=O)C(C)OC(=O)CCCCCC (stereo not given) inactive

What is the recorded call for this compound in the test? O=C(O)c1cc2c(cc1CC(Cc1ccc3c(c1)CCCC3)C(=O)O)CCCC2 (stereo not given) active

Query: recorded result category for "O=C(COc1ccc(Cl)c(Cl)c1)Nc1ccc[n+](Cc2ccc(Cl)c(Cl)c2)c1" in this test active

---

Assay: NCI Yeast Anticancer Drug Screen. Data for the mlh1 rad18 strain (AID 175)
Experimental Context: S. cerevisiae mlh1 rad18 strain growth inhibition; at 5.0 µM (retest, dose inferred, filed as 0.5); stronger effect = higher value
About 79,000 compounds went through this panel and 15% of them were active in at least one assay; those are over-represented in the sample as a whole.
Endpoint Label: growth inhibition (%)
State just the number; it will be interpreted in %.

CCCC/C=C1\CCC(CN2CCCCC2)C1=O (stereo unspecified): 56
CN(C)CCNc1ccc([N+](=O)[O-])c2nc3ccccc3c(N)c12: -53
CC(=O)Oc1c2ccccc2c(C)c2c1ccc1ccccc12: 91
Cc1cc(C)c(Cc2cc(C(C)(C)C)cc(C)c2O)cc1Cc1cc(C(C)(C)C)cc(C)c1O: 2
CCCCCCCCCCCCNC(=O)NCC(OCC)OCC: -19

May I ask what growth inhibition has been recorded for "O=[N+]([O-])/C=C/c1cc2c(ccc3ccccc32)[nH]1" ? 87

---

Assay: NCI Yeast Anticancer Drug Screen. Data for the rad50 strain (AID 155);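 further: 0% = growth of vehicle-only cultures of the same strain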
Experimental Context: S. cerevisiae rad50 strain growth inhibition; at 50.0 µM (retest, dose inferred, filed as 5.0); stronger effect = higher value
The panel holds about 79,000 compounds, 15% with a hit somewhere; the sample as a whole holds those more often. Calls of active or inactive are those of the source. Rule as the data show it: active = growth inhibition above about 70%; inactive = the rest.
Endpoint Label: growth inhibition

The following compounds have reported results that may help.
CCCCCCCCN(CCCCCCCC)CC(O)c1ccc2cc3c(nc2c1)CCCC3 (stereo not given): 94% (active)
Cc1cc([N+](=O)[O-])cc(C)c1OC(=O)Nc1c(Cl)cccc1Cl: 37% (inactive)
CC(C)C(Sc1nc(-c2ccccc2)c(-c2ccccc2)[nH]1)C(=O)NN (stereo not given): 91% (active)

For the compound "O=c1oc2ccccc2c(O)c1/C=N/C(=S)Nc1ccccc1" , what growth inhibition is on record? 93% (active)

For Nc1nc(=O)n(C2OC(CO)C(O)C2O)cc1[N+](=O)[O-] (stereo not given) , what is its reported growth inhibition? -9% (inactive)

Can you look up the measured growth inhibition of "CC(C)OC(=O)c1ccccc1C(=C1C=C(Br)C(=O)C(Br)=C1)c1cc(Br)c(O)c(Br)c1" for me? 95% (active)

---

Assay: NCI Yeast Anticancer Drug Screen. Data for the rad50 strain (AID 155);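 further: 0% = growth of vehicle-only cultures of the same strain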
Experimental Context: S. cerevisiae rad50 strain growth inhibition; at 50.0 µM; stronger effect = higher value
The panel holds about 79,000 compounds, 15% with a hit somewhere; the sample as a whole holds those more often.
Endpoint Label: growth inhibition (%)
Use % as the unit, but write only the number.

Would you please look over these solved cases?
C=C(CN(C)C)C(=O)c1ccccc1Cl: 90.8
Cc1ccc(C2SCC(=O)N2c2ccc(-n3c(-c4ccccc4)nc4ccccc4c3=O)cc2)cc1 (configuration not stated): 75.3
CCOC(=O)c1c(Cl)nnc(-c2ccccc2)c1-c1ccccc1: 98.2

Look up growth inhibition for this compound: "CN(C)CCCCN1c2ccccc2Sc2ccc(C(=O)c3ccccc3)cc21" 99.8

Would you kindly share the measured growth inhibition for Cc1cc(S(=O)(=O)Nc2nc(N)nc(N(C)C)n2)c(SC(C(=O)O)c2ccccc2)cc1Cl (configuration not stated) ? -8.65

Suppose we examine the compound O=C1NC(=O)C(c2ccccc2)(c2ccccc2)C2CC3c4[nH]c5ccccc5c4CCN3CC12 (configuration not stated) ; what growth inhibition value has been reported? 64.5

Entry under review: "CC(=O)/C(=C\c1cccs1)C(=O)CCN(C)C" . Reported growth inhibition? 9.05

# growth inhibition lookup, item "BrC1=CC(Br)=C2N=C(C(Br)(Br)Br)N=C3N=C(C(Br)(Br)Br)N=C1N32" 99

Suppose we examine the compound "O=[N+]([O-])/C=C/c1cc2c(ccc3ccccc32)[nH]1" ; what growth inhibition value has been reported? 82.7

# query: growth inhibition of entry O=C(c1ccc(Br)cc1)C1OC12C(=O)Nc1ccccc12 (configuration not stated) 99.7

# query: growth inhibition of entry "Cc1cc(C)c(Cc2cc(C(C)(C)C)cc(C)c2O)cc1Cc1cc(C(C)(C)C)cc(C)c1O" 51.4

For "CCN(CC)CCNC(=O)c1ccc(N=Cc2cc(Cl)cc(Cl)c2O)cc1" , what is its reported growth inhibition? 81.2

Quick one: growth inhibition for "CCOC(=O)C1=C(C)NC(C)=C(C(=O)OCC)C1c1c(-c2ccccc2)noc1C" ? 6.6

Can you share its growth inhibition? I mean this compound: "O=C(O)c1cc(-c2ccc3c(c2)Nc2ccccc2S3)nc2ccc(F)cc12" 99

Returns the measured growth inhibition for the input compound. Input: "O=[N+]([O-])c1ccc2nc(CCl)[nH]c2c1" 73.2

State the recorded growth inhibition for this entry: Cc1ccc(C)c(NC(=O)/C(=N\NC(N)=S)C(C#N)c2ccccc2)c1 (configuration not stated) -14.3

Any idea what growth inhibition was measured for CNC(=O)N(C1=NCC(C)S1)c1ccc(C)c(C)c1 (configuration not stated) ? 63.9

Dear colleague, I am looking for the recorded growth inhibition of the following compound: "C1=C(c2ccccc2)CCc2c1ccc1ccccc21" -3.45

GET /values?readout=growth inhibition&item= "O=C(Oc1ccc(/C=C/[n+]2ccccc2)c(OC(=O)c2ccccc2)c1)c1ccccc1" 49.6

Quick one: growth inhibition for "O=[N+]([O-])c1cc(I)cc(/C=N/NS(=O)(=O)c2ccc(F)cc2)c1O" ? 84.2

Any idea what growth inhibition was measured for CCCCCC(C)NCCOC(=O)c1ccccc1 (configuration not stated) ? 50.8

What value of growth inhibition has been recorded for this entry: "CCc1ccccc1NC(=O)C(=O)CC(=O)c1ccc(Cl)s1" 45.1

---

# growth inhibition listing for each entry below
Assay: NCI Yeast Anticancer Drug Screen. Data for the cln2 rad14 strain (AID 165);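 further: 0% = growth equal to vehicle treated cultures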
Experimental Context: S. cerevisiae cln2 rad14 strain, at 5.0 µM (retest, dose inferred, filed as 0.5), stronger effect = higher value
Description: Growth inhibition of yeast strains with defined genetic alterations is measured as a screen for potential anti-cancer activity. Selected strains with alterations in DNA damage repair or cell cycle control were exposed to compounds and growth inhibition was measured relative to vehicle treated controls. The strain used in this assay is cln2 rad14
This is part of a sample that, as a whole, favours compounds with a hit. Of some 79,000 tested, about 15% had one in any assay.
Reply with just the number (in %).

COC(=O)CC1(O)c2cc(OC)c3cccc(OC)c3c2CCC1(C)C(=O)OC (stereo not given): 80
O=C(OCCN=c1c2ccccc2ccc2ccccc12)c1ccccc1: 22
O=C(O)CSc1ccc(N=C=S)cc1: -9

Please give the measured growth inhibition for this molecule: "COc1ccc2nc3cc(Cl)ccc3c(NCCCCN(C)C)c2c1" 5

Param item = "Nc1ccc2c(c1)CCc1ccccc1-2" ; retrieve measured growth inhibition. -5

Consider the molecule shown here: "CC(=O)NNc1nc(C)c(C(=O)NNC(=O)C(=O)Nc2ccc(Cl)c([N+](=O)[O-])c2)s1" What is its recorded growth inhibition? 18

Given the entry "c1ccc(-c2n[nH]c3c4ccccc4c4ccccc4c23)cc1" , report its measured growth inhibition. 5

So what does the record say about growth inhibition for "COc1ccc(Cc2c3ccccc3cc[n+]2C)cc1Oc1ccc(Cc2c3ccccc3cc[n+]2C)cc1" ? -14

# input molecule: "COc1ccc2nc3cc(Cl)ccc3c(NCCC[N+](C)(C)CCCCCCCCCCCCCCCC[N+](C)(C)CCCNc3c4ccc(Cl)cc4nc4ccc(OC)cc34)c2c1" ; wanted: its growth inhibition 76

For the molecule "Nc1ccc2c(c1)S(=O)(=O)c1cc(O)ccc1O2" , what growth inhibition is on record? 11

Reference for the values: PubChem BioAssay (NCI)
